Target desc: Estrogen receptor beta (Homo sapiens, UniProt Q92731)
Sequence (Q92731 whole entry): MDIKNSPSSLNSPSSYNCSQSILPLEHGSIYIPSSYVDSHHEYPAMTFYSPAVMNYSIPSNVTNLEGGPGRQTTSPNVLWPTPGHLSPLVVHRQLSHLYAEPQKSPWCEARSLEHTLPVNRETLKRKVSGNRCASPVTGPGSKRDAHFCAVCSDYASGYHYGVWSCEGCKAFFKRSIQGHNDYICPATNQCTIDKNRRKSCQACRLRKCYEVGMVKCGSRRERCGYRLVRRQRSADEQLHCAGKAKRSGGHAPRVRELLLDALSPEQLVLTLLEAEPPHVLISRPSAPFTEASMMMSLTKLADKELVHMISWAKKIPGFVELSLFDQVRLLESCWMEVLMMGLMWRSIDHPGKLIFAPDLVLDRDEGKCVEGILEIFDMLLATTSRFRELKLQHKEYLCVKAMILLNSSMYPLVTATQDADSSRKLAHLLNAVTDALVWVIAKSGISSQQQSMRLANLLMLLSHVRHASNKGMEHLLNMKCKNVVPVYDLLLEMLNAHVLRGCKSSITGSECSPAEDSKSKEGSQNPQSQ
Measurement protocol: Binding affinity to human recombinant ERbeta incubated for 20 mins
Measured property: pIC50
# pIC50 is unitless: minus log10 of the molar concentration; print number only

What measured pIC50 goes with `COc1ccc([C@@H]2C(=O)c3ccc(OC)cc3[C@H]2c2ccc(OCCN3CCC(C)CC3)cc2)cc1` ? 6.29

---

Tested on: SW480
Measurement protocol: Growth inhibition of human SW480 cells incubated for 1.5 hrs by MTT assay
Format: functional, cell-based
pIC50 reference
# pIC50 is unitless: minus log10 of the molar concentration; print number only

Sample answers from the record:
[
  {
    "Compound": "CCOc1ccc([C@@H]2CC(=O)c3cc(OC)c(OC)c(OC)c32)cc1F",
    "Measured property": "pIC50",
    "Measured result": 5.34
  },
  {
    "Compound": "CCOc1ccc(C2CC(=O)c3cc(OC)c(OC)c(OC)c32)cc1F (centres undefined)",
    "Measured property": "pIC50",
    "Measured result": 5.44
  },
  {
    "Compound": "CCOc1ccc([C@H]2CC(=O)c3cc(OC)c(OC)c(OC)c32)cc1F",
    "Measured property": "pIC50",
    "Measured result": 5.88
  }
]

Next:
What measured pIC50 goes with O=c1[nH]cc(F)c(=O)[nH]1 [FLUOROURACIL] ? 4.43
